TESTED_ON: human TRPV1 (Homo sapiens, UniProt Q8NER1)
Sequence (Q8NER1 whole entry): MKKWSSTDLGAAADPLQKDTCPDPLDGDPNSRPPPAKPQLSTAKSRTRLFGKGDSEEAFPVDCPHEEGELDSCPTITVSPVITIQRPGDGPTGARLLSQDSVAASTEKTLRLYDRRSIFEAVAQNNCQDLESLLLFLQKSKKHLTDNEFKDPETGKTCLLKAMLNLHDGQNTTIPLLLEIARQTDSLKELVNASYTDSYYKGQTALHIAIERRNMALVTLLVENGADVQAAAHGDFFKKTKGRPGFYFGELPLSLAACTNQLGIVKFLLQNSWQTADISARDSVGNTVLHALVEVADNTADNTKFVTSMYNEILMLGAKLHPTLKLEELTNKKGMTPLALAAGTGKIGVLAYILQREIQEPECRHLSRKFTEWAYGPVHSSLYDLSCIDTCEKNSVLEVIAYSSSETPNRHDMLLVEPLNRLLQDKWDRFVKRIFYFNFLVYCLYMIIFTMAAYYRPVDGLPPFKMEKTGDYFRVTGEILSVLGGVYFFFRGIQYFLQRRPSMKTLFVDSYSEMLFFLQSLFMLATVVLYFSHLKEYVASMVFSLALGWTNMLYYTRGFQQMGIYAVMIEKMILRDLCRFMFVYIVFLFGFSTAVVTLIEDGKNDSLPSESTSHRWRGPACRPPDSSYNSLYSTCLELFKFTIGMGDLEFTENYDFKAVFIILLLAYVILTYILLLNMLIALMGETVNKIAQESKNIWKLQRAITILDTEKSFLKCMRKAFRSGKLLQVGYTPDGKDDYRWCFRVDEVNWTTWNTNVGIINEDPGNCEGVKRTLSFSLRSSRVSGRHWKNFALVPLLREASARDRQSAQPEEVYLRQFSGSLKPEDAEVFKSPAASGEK
ASSAY: Functional assay: block of capsaicin-induced Ca2+ influx, human assay (hTRPV1/HEK293, FLIPR)
RECORDED_CONDITIONS: hTRPV1/HEK293 cells, 150 nM capsaicin challenge, Fluo-3 fluorescence; mean; > value = solubility limit in assay medium
READOUT: IC50 (nM)

[I] Cc1cccc(C)c1Nc1nc2c(Nc3ccc4c(c3)OCCO4)ncnc2s1 [Example 150]
[II] Cc1nc(Nc2ccc(C(F)(F)F)cc2)c2nc(Nc3cccc4nsnc34)sc2n1 [Example 205]
[III] Cc1nc(Nc2ccc(SC(F)(F)F)c(Cl)c2)c2nc(Nc3c(C)cccc3C)sc2n1 [Example 131]
[IV] Cc1nc(Nc2ccc3c(c2)N(C)CCC3)c2nc(Nc3c(Cl)cccc3Cl)sc2n1 [Example 139]
Arrange the 4 molecules from largest to smallest IC50. Note for the reader: the ranking is given by listing the labels in the order requested.
II, I, IV, III

###

TESTED_ON: rat TRPV1 (Rattus norvegicus)
Sequence (O35433 whole entry): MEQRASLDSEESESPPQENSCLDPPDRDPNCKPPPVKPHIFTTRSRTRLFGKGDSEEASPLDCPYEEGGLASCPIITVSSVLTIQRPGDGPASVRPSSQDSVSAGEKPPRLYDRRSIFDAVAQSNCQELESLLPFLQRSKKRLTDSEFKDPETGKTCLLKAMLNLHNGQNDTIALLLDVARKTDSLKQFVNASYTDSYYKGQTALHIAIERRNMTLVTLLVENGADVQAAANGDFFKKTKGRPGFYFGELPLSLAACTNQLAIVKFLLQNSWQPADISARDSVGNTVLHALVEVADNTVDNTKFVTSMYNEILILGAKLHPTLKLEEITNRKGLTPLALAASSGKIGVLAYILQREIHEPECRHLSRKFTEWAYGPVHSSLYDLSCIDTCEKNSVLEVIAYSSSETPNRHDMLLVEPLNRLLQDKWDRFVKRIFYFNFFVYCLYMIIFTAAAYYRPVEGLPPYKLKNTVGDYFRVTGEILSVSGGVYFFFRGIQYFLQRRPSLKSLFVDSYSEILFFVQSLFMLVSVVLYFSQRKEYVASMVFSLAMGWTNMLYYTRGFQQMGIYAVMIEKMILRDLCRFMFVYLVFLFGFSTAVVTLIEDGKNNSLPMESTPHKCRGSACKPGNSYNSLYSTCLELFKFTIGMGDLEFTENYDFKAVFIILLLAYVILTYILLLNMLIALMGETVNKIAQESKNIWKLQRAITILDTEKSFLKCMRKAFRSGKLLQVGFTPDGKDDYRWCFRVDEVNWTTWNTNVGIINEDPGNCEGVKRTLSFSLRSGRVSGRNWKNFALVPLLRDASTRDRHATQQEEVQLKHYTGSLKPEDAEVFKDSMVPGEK
ASSAY: Functional assay: block of capsaicin-induced Ca2+ influx, rat assay (rTRPV1/HEK293, FLIPR)
RECORDED_CONDITIONS: rTRPV1/HEK293 cells, capsaicin challenge, Fluo-3 fluorescence; mean; > value = solubility limit in assay medium
READOUT: IC50 (nM)

Please review the following examples before continuing.
- COMPOUND: "CS(=O)(=O)c1ccccc1Nc1nc2c(Nc3ccc(C(F)(F)F)nc3)ncnc2s1"
  TESTED_ON: "rat TRPV1 (Rattus norvegicus)"
  READOUT: "IC50"
  RECORDED_NUMBER: 1080
- COMPOUND: "CC(C)C1CCCN1c1nc(Nc2ccc(S(C)(=O)=O)cc2)c2nc(Nc3c(Cl)cccc3Cl)sc2n1 (racemic)"
  TESTED_ON: "rat TRPV1 (Rattus norvegicus)"
  READOUT: "IC50"
  RECORDED_NUMBER: 3
- COMPOUND: "Cc1cccc(C)c1Nc1nc2c(Nc3ccc(S(C)(=O)=O)c(F)c3)ncnc2s1"
  TESTED_ON: "rat TRPV1 (Rattus norvegicus)"
  READOUT: "IC50"
  RECORDED_NUMBER: 32
- COMPOUND: "Cc1cccc(C)c1Nc1nc2c(Nc3ccc(C#N)nc3)ncnc2s1"
  TESTED_ON: "rat TRPV1 (Rattus norvegicus)"
  READOUT: "IC50"
  RECORDED_NUMBER: 178
- COMPOUND: "O=S(=O)(c1ccc(Nc2ncnc3sc(Nc4ccccc4Cl)nc23)cc1)N1CCOCC1"
  TESTED_ON: "rat TRPV1 (Rattus norvegicus)"
  READOUT: "IC50"
  RECORDED_NUMBER: 15

[I] FC(F)(F)c1ccc(Nc2ncnc3sc(Nc4c(Cl)cc(CN5CCOCC5)cc4Cl)nc23)cc1
[II] Cc1cccc(C)c1Nc1nc2c(Nc3ccc(S(=O)(=O)N4CCN(C)CC4)cc3)ncnc2s1
Short answer wanted: higher IC50, I or II ? // output: label of the selected item
I

[1] Cc1nc(Nc2ccc(S(=O)(=O)N(C)C)cc2)c2nc(Nc3c(C)cccc3C)sc2n1
[2] FC(F)(F)c1ccc(Nc2ncnc3sc(Nc4ccccc4C(F)(F)F)nc23)cc1
[3] Cc1nc(Nc2ccc(NS(C)(=O)=O)cc2)c2nc(Nc3c(C)cccc3C)sc2n1
[4] CS(=O)(=O)c1ccc(Nc2ncnc3sc(Nc4ccccc4C(F)(F)F)nc23)cc1
Rank items: key IC50, increasing. Note for the reader: the ranking is given by listing the labels in the order requested.
1, 2, 4, 3

[A] Cc1noc(C)c1Nc1nc2c(Nc3ccc(C(F)(F)F)cc3)ncnc2s1
[B] FC(F)(F)c1ccc(Nc2nc(NCCN3CCCCC3)nc3sc(Nc4c(Cl)cccc4Cl)nc23)cc1
Short answer wanted: higher IC50, A or B ? // output: label of the selected item
A
